- targetUnderTest: Potassium voltage-gated channel subfamily A member 5 (Homo sapiens, UniProt P22460)
- Sequence (P22460 whole entry): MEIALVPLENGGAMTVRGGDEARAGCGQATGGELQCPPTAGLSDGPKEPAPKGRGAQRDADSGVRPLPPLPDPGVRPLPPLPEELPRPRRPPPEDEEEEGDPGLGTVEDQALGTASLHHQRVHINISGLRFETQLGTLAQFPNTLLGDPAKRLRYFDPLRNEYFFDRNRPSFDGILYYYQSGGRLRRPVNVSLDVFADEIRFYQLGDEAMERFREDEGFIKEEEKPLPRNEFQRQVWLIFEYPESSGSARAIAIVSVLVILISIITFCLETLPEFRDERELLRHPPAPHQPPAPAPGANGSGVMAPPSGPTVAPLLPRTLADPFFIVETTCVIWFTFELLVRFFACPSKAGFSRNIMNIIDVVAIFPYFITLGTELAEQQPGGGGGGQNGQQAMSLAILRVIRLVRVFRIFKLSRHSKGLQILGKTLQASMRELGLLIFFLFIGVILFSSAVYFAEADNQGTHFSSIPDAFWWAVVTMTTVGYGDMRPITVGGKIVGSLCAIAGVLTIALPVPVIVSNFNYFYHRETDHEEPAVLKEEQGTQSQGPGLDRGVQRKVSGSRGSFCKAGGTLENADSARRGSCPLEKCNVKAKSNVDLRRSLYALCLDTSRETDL
- protocolText: Inhibition of ultra-rapid delayed rectifier current Ikur in human atrial cells at 1uM
- Format: functional, cell-based
- experimentalSetup: Cardiac atrium
recordedEndpoint: inhibition (%)

{"molecule": "COc1ccc(CON2C(=O)CSC2c2ccc(Cl)c(Cl)c2)cc1 (centres undefined)", "unitOfMeasurement": "%", "recordedMeasurement": 92}
{"molecule": "COc1ccccc1CON1C(=O)CSC1c1ccc(C)c(C)c1 (centres undefined)", "unitOfMeasurement": "%", "recordedMeasurement": 92}
{"molecule": "O=C1CSC(c2ccc(Cl)c(Cl)c2)N1OCc1ccccc1 (centres undefined)", "unitOfMeasurement": "%", "recordedMeasurement": 77}
{"molecule": "COc1cccc(CON2C(=O)CSC2c2ccc(C)c(C)c2)c1 (centres undefined)", "unitOfMeasurement": "%", "recordedMeasurement": 75}
